# Test system: S. aureus
# experiment: Minimum inhibitory concentrations (MICs) for S. aureus of exemplary compounds (Table 2)
# Format: cell-based
# measurement.conditions: Staphylococcus aureus, minimum inhibitory concentrations for S. aureus; read-out: MICs
# Lookup of reported MIC keyed by entry
All answers are understood in µg/mL, so give the number only.

Known results for compounds:
INSERT INTO assay_data (compound, outcome_measure, value_reported) VALUES
  ('CC(=O)NC[C@H]1CN(c2ccc(-c3ccc(CSc4nnnn4CCN(C)C)cc3)c(F)c2)C(=O)O1', 'MIC', 1),
  ('CC(=O)NC[C@H]1CN(c2ccc(-c3ccc(C(C)NC(C)c4ccncc4)cc3)c(F)c2)C(=O)O1 (mixture of isomers)', 'MIC', 8),
  ('CC(=O)NC[C@H]1CN(c2ccc(-c3ccc(CNC(=O)c4ccnc5ccccc45)cc3)c(F)c2)C(=O)O1', 'MIC', 1),
  ('CC(=O)NC[C@H]1CN(c2ccc(-c3ccc(CNCc4cocn4)nc3)c(F)c2)C(=O)O1', 'MIC', 2),
  ('CC(=O)NC[C@H]1CN(c2ccc(-c3ccc(CCn4ccnn4)cc3)c(F)c2)C(=O)O1', 'MIC', 2);

Prompt: Would you kindly share the measured MIC for CC(=O)NC[C@H]1CN(c2ccc(-c3ccc([C@@H](N)Cn4ccnc4)cc3)c(F)c2)C(=O)O1 ?
Response: 8

Prompt: Item under review: CC(=O)NC[C@H]1CN(c2ccc(-c3ccc(Cn4nnnc4N)cc3)c(F)c2)C(=O)O1 . Reported MIC?
Response: 0.5
